Reported kinase still bound, per cent of control values for the following molecules.
biological target: PLK1 (human) (UniProt P53350); assay: KINOMEscan competition binding; details: compound 10.0 µM
Sequence (P53350 whole entry, looked up): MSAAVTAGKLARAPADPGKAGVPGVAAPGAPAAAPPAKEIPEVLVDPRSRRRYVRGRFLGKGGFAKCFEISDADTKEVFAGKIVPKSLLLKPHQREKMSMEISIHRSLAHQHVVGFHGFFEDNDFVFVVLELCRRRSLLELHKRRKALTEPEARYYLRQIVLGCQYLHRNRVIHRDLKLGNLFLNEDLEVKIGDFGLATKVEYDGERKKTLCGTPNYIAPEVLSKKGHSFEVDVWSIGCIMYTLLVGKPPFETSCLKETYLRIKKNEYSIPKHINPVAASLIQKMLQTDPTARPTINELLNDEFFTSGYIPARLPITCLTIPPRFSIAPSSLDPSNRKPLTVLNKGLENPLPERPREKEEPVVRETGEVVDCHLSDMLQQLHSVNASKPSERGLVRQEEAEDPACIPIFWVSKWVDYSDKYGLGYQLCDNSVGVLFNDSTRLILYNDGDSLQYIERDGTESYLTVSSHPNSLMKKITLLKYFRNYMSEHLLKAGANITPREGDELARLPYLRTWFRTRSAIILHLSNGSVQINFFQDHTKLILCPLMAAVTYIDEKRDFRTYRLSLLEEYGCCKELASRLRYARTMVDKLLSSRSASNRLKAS
Number only, in %; omit the unit.

{"Substance Smiles": "Nc1ccc(-c2ccc3ncc4ccc(=O)n(-c5cccc(C(F)(F)F)c5)c4c3c2)cn1", "System Tested": "PLK1 (human) (UniProt P53350)", "Measured": 94}

Field request: kinase still bound, per cent of control | item: COc1cc(C(=O)NC2CCN(C)CC2)ccc1Nc1ncc2c(n1)N(C1CCCC1)CCC(=O)N2C(C)C
17

Same lookup for C=CC(=O)Nc1cc(NC(=O)c2ccc(C)c(NC(=O)c3ccno3)c2)cc(C(F)(F)F)c1 , please.
77

Same lookup for Cc1ccc(NC(=O)c2cccc(C(C)(C)C#N)c2)cc1Nc1ccc2ncn(C)c(=O)c2c1 , please.
100

Same lookup for O=C(NC1CC1)c1cccc(-c2ccc3c(NC(=O)C4CC4)n[nH]c3c2)c1 , please.
78

====

test system: ABL1 (human), P00519 [M351T]; assay: KINOMEscan competition binding; conditions: compound 10.0 µM
Reported kinase still bound, per cent of control values for the following compounds.
Number only, in %; omit the unit.

Use these answered entries as a reference point.
{"Compound": "CC1=C(C(=O)Nc2cc3cn[nH]c3cc2F)C(c2ccc(C(F)(F)F)cc2)CC(=O)N1 (centres undefined)", "Unit Tag": "%", "Measured": 82}
{"Compound": "C=CC(=O)Nc1cccc(Oc2nc(Nc3ccc(N4CCN(C)CC4)cc3OC)ncc2Cl)c1", "Unit Tag": "%", "Measured": 100}
{"Compound": "CCN1CCN(C(=O)Cc2ccc(Nc3ncc(F)c(Nc4ccc(C(=O)Nc5ccccc5Cl)cc4)n3)cc2)CC1", "Unit Tag": "%", "Measured": 19}

# ---- query compound ----
Field request: kinase still bound, per cent of control | item: CC[C@@H]1C(=O)N(C)c2cnc(Nc3ccc(C(=O)NC4CCN(C)CC4)cc3OC)nc2N1C1CCCC1
100

====

target: UniProt Q9UEE5; test: KINOMEscan competition binding; details: compound 10.0 µM
Sequence (Q9UEE5 whole entry, looked up): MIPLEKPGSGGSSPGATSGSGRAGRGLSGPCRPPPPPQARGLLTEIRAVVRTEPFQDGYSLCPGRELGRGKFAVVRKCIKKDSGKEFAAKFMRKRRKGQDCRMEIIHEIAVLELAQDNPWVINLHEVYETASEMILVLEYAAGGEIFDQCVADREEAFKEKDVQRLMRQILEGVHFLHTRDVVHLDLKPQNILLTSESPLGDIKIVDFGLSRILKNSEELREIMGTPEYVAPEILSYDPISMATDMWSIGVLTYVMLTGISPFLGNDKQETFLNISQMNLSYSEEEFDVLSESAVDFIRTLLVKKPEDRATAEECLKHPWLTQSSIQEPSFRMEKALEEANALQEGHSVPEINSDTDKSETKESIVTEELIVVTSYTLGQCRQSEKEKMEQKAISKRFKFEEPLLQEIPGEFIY
Measurement Name: kinase still bound, per cent of control (%)
Number only, in %; omit the unit.

Use these answered entries as a reference point.
{"Substance Smiles": "Nc1ccc(-c2ccc3ncc4ccc(=O)n(-c5cccc(C(F)(F)F)c5)c4c3c2)cn1", "Measured": 100}
{"Substance Smiles": "Cn1c(=O)n(-c2ccc(C(C)(C)C#N)cc2)c2c3cc(-c4cnc5ccccc5c4)ccc3ncc21", "Measured": 100}
{"Substance Smiles": "O=C(O)c1ccc(Nc2ncc3c(n2)-c2ccc(Cl)cc2C(c2c(F)cccc2F)=NC3)cc1", "Measured": 1.9}
{"Substance Smiles": "C=CC(=O)Nc1cccc(Nc2nc(N[C@H]3CC[C@H](N(C)C)CC3)nc3c2ncn3C(C)C)c1", "Measured": 100}

# ---- query compound ----
Field request: kinase still bound, per cent of control | item: COc1cc(C(=O)NC2CCN(C)CC2)ccc1Nc1ncc2c(n1)N(C1CCCC1)CCC(=O)N2C(C)C
100

====

molecular target: GAK (human); experiment: KINOMEscan competition binding; conditions: compound 10.0 µM
Reported kinase still bound, per cent of control values for the following molecules.
Number only, in %; omit the unit.

{"Substance Smiles": "OCCCNc1cc(-c2ccnc(Nc3cccc(Cl)c3)n2)ccn1", "kinase still bound, per cent of control [%]": 100}
{"Substance Smiles": "Nc1ccc(-c2ccc3ncc4ccc(=O)n(-c5cccc(C(F)(F)F)c5)c4c3c2)cn1", "kinase still bound, per cent of control [%]": 56}
{"Substance Smiles": "COc1cc(N2CCN(C)CC2)ccc1Nc1nc(N)c(C(=O)c2c(Cl)cccc2Cl)s1", "kinase still bound, per cent of control [%]": 73}
{"Substance Smiles": "CCN1CCN(Cc2ccc(Nc3ncc4c(n3)N(C)c3ccccc3C(=O)N4C)cc2C(F)(F)F)CC1", "kinase still bound, per cent of control [%]": 12}

# ---- query molecule ----
Field request: kinase still bound, per cent of control | item: O=C(O)c1ccc(Nc2ncc3c(n2)-c2ccc(Cl)cc2C(c2c(F)cccc2F)=NC3)cc1
49

All values here come from the kinase profiling compilation of Christmann-Franck et al. (2016).
